Assay Procedure: Identification of proteins required for the processing of the EWS-FLI1 nascent transcript;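 further: robust z of luciferase light less the median z of siRNAs with the same seed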
Experimental Parameters: TC32 Ewing sarcoma NR0B1-luc vs CMV-luc (EWS-FLI1 target promoter against control promoter), 48 h; screened at 20 nM (by protocol)
In all, about 59,000 sequences were measured (the read-out: median about -0.00055, lowest 2% from about -2 on). The entries come from a sample that favours the lowest values as a whole.
For each record, write down the corresponding seed-corrected z-score.
Keep it simple and answer with nothing but the number.

What does the data say about its seed-corrected z-score? Entry: UCUAAUACAAGGUUCAUAU against SNRPEP2
-2.56

Consider the sequence UCUGGAUCAAAGGGUGUUG against TMEM134 and give its measured seed-corrected z-score.
-4.42

Consider the sequence shown here: AACCUGUCAAUUAUCACUG against EBF1 What is its recorded seed-corrected z-score?
0.337

Quick one: seed-corrected z-score for UUCAGGGUAAGGUGGAUGG against UBD ?
0.588

What value of seed-corrected z-score has been recorded for this entry: UAAUCUCCUUCUUUAGGUC against CNOT3
1.42

Find the recorded seed-corrected z-score belonging to UGAAAUGCUAAUGCGUGGG against RBM33 and report it.
0.224

Query (sequence): UUCGUGAUCAUCUUCUCAC against PHYH ; field requested: seed-corrected z-score
0.854

Sample UUGGUCUGUAGUACUGUUC against SNX27 — what was its seed-corrected z-score?
-2.17

Consider the sequence UCUUCGUUCUUGUCGAUCU against MED15 and give its measured seed-corrected z-score.
2.07

Recorded seed-corrected z-score of AAUAUCAAUACGAUCUCUG against SNAP23 , please.
-0.225

Look up seed-corrected z-score: ACGAUUACAACUUCGAUCC against DOCK7
1.63

Entry UCUCGUAUGAUAUAAUCUC against HCN1 : reported seed-corrected z-score = ?
0.749

Consider the sequence shown here: UGCAUGACAAACAAAUUCC against GATAD1 What is its recorded seed-corrected z-score?
0.136

Every entry's value here was drawn from PubChem BioAssay AID1159506.
